B1: INTS3 (parent)
chain: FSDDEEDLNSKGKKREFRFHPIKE

- Variants of: B1
- TEST_DETAILS: protein stability index of a GFP-peptide fusion (GPS, HEK-293T) (PSI 1-6); higher = more stable;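 note: lentivirally expressed fusions sorted by FACS into six bins by GFP to DsRed ratio, PSI derived from sequencing read proportions per bin multiplied by bin number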
- COND: c terminus: a fixed tail appended
Reported protein stability index is given for each of the following variants.

# VAR, protein stability index
rows = [
    ("K13P", 2.85),
    ("E24I", 2.06),
    ("K23C", 3.43),
    ("R18D", 4.94),
    ("F1Y", 2.94),
    ("S2T", 2.88),
    ("S2L", 2.47),
    ("S2R", 2.14),
    ("F17N", 5.01),
    ("F17S", 5.44),
    ("E24G", 2.17),
    ("K13C", 2.89),
    ("D7L", 2.56),
    ("S10I", 2.17),
    ("F1H", 2.72),
    ("H20P", 4.86),
    ("I22K", 2.81),
    ("P21G", 4.16),
    ("E6K", 2.61),
    ("R15Q", 3.62),
    ("L8I", 2.83),
    ("P21C", 3.28),
]
